MEASURED_ON: CDK4-CYCLIND1 (Homo sapiens, UniProt P11802)
Sequence (P11802 whole entry): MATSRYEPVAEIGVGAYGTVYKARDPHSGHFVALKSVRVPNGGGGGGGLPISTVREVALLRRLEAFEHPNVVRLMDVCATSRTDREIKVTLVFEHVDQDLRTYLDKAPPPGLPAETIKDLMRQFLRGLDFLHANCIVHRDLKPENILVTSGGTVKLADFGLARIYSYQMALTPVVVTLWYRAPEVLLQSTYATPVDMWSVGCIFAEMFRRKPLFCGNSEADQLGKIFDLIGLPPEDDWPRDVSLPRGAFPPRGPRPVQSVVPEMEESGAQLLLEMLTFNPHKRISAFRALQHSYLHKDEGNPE
Sequence (P24385 whole entry partner): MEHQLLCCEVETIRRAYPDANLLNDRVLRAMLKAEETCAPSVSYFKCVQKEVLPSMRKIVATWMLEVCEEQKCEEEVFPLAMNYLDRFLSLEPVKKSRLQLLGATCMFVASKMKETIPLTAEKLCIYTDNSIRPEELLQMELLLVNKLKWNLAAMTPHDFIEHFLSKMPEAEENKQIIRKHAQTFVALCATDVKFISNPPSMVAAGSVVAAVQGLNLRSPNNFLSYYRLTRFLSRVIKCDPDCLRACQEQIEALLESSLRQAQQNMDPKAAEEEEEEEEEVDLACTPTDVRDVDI
PROTOCOL_NOTES: Microfluidic LabChip inhibition assay, CDK4-CYCLIND1
Format: biochemical
SETUP_CONDITIONS: Table 3a; ATP 200 μM; second values in parentheses on the line below, not explained; read-out: CDK4 CyclinD1 IC50
OBSERVED_PROPERTY: log10(IC50) (log10 of the value in nM)

CC(=O)c1c(C)c2cnc(Nc3ccc(OCCN(C)C)c(C)c3)nc2n(C2CCCC2)c1=O : 3.20
CS(=O)(=O)N1CCC(Nc2ncc3cc(C#N)c(=O)n(C4CCCC4)c3n2)CC1 : 0.52
CN(C)C(=O)c1cc2cnc(NC3CCN(S(C)(=O)=O)CC3)nc2n(C2CCCC2)c1=O : 1.33
CN1CCN(c2ccc(Nc3ncc4cc(C(=O)N(C)C)c(=O)n(C5CCCC5)c4n3)nc2)CC1 : 2.85
CNC(=O)c1cc2cnc(Nc3ccc(N4CCN(C)CC4)nc3)nc2n(C2CCCC2)c1=O : 2.57
CC(=O)c1c(C)c2cnc(Nc3ccc(OCCN4CCCC4)cn3)nc2n(C2CCCC2)c1=O : 1.18
CC(=O)c1c(C)c2cnc(Nc3ccc(N(C)CCN(C)C)cc3)nc2n(C2CCCC2)c1=O [Compound B64] : 0.91
CN1CC2(C1)CN(c1ccc(Nc3ncc4cc(C#N)c(=O)n(C5CCCC5)c4n3)cc1)C2 : 0.60
CC(=O)c1c(C)c2cnc(Nc3ccc(N4CCN(C)CC4)cn3)nc2n(C23CC(C2)C3)c1=O : 1.68
Cc1c(C(=O)N(C)C)c(=O)n(C23CC(C2)C3)c2nc(NC3CC4CCC3C4)ncc12 (stereo not shown) [Compound B157] : 3.10
CN1CCN(c2ccc(Nc3ncc4cc(C#N)c(=O)n(C56CC(C5)C6)c4n3)cc2F)CC1 : 1.78
N#Cc1cc2cnc(Nc3ccc(N4CCNCC4)c(F)c3)nc2n(C23CC(C2)C3)c1=O : 1.67
Cc1c(C(=O)N(C)C)c(=O)n(C23CC(C2)C3)c2nc(NC3CC4CCC3C4)ncc12 (stereo not shown) [Compound B158] : 3.20
CC(=O)NC(=O)c1cc2cnc(Nc3ccc(N4CCN(C)CC4)cn3)nc2n(C2CCCC2)c1=O : 2.66
Cc1c(C(=O)N(C)C)c(=O)n(C2CCCC2)c2nc(Nc3ccc(N4CC(C)NC(C)C4)cc3)ncc12 (stereo not shown) : 0.95
CN(C)CCOc1ccc(Nc2ncc3cc(C#N)c(=O)n(C45CC(C4)C5)c3n2)nc1 : 2.70
Cc1c(C(=O)N(C)C)c(=O)n(C23CC(C2)C3)c2nc(NC3CCN(S(C)(=O)=O)CC3)ncc12 : 2.00
